Molecular target: CDK7/CyclinH/Mat1 (Homo sapiens, UniProt P50613)
Sequence (P50613 whole entry, species assumed): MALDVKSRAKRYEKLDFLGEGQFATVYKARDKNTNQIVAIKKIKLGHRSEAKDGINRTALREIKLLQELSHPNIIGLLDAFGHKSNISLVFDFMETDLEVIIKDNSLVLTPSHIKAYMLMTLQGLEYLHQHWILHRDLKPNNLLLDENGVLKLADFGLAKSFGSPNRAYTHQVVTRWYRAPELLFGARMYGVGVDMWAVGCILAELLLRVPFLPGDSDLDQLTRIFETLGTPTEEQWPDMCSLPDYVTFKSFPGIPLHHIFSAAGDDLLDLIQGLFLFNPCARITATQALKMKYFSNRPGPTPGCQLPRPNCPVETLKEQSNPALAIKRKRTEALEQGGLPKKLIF
Sequence (P51946 whole entry partner, species assumed): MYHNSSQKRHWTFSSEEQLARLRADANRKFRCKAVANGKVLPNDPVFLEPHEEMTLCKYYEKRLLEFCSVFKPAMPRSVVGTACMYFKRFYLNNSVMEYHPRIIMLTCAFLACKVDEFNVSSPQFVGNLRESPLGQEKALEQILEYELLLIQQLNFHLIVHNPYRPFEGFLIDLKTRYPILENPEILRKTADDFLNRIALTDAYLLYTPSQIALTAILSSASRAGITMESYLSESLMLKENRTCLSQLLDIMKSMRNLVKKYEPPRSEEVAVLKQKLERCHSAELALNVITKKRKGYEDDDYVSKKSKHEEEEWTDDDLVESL
Sequence (P51948 whole entry partner, species assumed): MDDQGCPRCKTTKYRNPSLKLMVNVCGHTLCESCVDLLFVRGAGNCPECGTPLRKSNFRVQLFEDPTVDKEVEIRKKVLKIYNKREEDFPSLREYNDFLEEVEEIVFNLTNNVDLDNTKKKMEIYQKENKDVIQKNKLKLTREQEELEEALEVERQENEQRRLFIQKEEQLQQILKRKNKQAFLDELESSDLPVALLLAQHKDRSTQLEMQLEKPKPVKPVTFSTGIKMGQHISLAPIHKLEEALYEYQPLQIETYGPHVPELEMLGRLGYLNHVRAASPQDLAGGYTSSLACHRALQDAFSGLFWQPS
Assay: ADP Glo kinase assay, CDK7/CyclinH/Mat1
Assay type: biochemical
Conditions: compound at 1 μM, read-out: Residual enzymatic activity (%) at 1 μM, CDK7 H
Class key for remaining activity at 1 µM values: low (below 60%), medium (60% to below 80%), high (80% or more)

>  <molecule>
CS(=O)(=O)N1CCN(c2ccc(Nc3nccc(-c4cnc5ccc(-c6ccncc6)cn45)n3)cn2)CC1

>  <classAssignment>
low

$$$$
>  <molecule>
CN1CCN(c2ccc(Nc3nccc(-c4cnc5ccc(C(F)(F)F)cn45)n3)cn2)CC1

>  <classAssignment>
low

$$$$
>  <molecule>
CS(=O)(=O)N1CCN(c2ccc(Nc3nccc(-c4cnc5ccc(-c6cc7ccccc7o6)cn45)n3)cn2)CC1

>  <classAssignment>
high

$$$$
>  <molecule>
c1ccc(-c2ccc3ncc(-c4ccnc(Nc5ccc(NC6CCOCC6)nc5)n4)n3c2)cc1

>  <classAssignment>
medium

$$$$
>  <molecule>
Brc1ccc2ncc(-c3ccnc(Nc4ccc(NC5CCOCC5)nc4)n3)n2c1

>  <classAssignment>
high

$$$$
>  <molecule>
CN1CCN(c2ccc(Nc3nccc(-c4cnc5ccc(-c6ccccc6)cn45)n3)nc2)CC1 [Comparator compound A, reference compound]

>  <classAssignment>
medium

$$$$
>  <molecule>
CC(=O)N1CCN(c2ccc(Nc3nccc(-c4cnc5ccc(Br)cn45)n3)cn2)CC1

>  <classAssignment>
medium

$$$$
>  <molecule>
CC(C)N1CCN(c2ccc(Nc3nccc(-c4cnc5ccc(-c6cncnc6)cn45)n3)cn2)CC1

>  <classAssignment>
low

$$$$
>  <molecule>
O=C1NCCC12CCN(c1ccc(Nc3nccc(-c4cnc5ccc(-c6cnn(C(F)F)c6)cn45)n3)cn1)CC2

>  <classAssignment>
high

$$$$
>  <molecule>
CC(C)N1CCN(c2ccc(Nc3nccc(-c4cnc5ccc(-c6ccsc6)cn45)n3)cn2)CC1

>  <classAssignment>
low

$$$$
>  <molecule>
COc1ccc(-c2ccc3ncc(-c4ccnc(Nc5ccc(N6CCN(C)CC6)nc5)n4)n3c2)cn1

>  <classAssignment>
low

$$$$
>  <molecule>
CC(=O)N1CCN(c2ccc(Nc3nccc(-c4cnc5ccc(-c6ccncc6)cn45)n3)cn2)CC1

>  <classAssignment>
medium

$$$$
>  <molecule>
CCS(=O)(=O)N1CCN(c2ccc(Nc3nccc(-c4cnc5ccc(-c6ccccc6)cn45)n3)cn2)CC1

>  <classAssignment>
high

$$$$
>  <molecule>
CN1CCN(Cc2ccc(Nc3nccc(-c4cnc5ccc(Br)cn45)n3)cn2)CC1

>  <classAssignment>
low

$$$$
>  <molecule>
CC(C)N1CCN(c2ccc(Nc3nccc(-c4cnc5ccc(-c6ccncc6)cn45)n3)cn2)CC1

>  <classAssignment>
low

$$$$
>  <molecule>
CCCNc1ccc(Nc2nccc(-c3cnc4ccc(-c5cnn(C(F)F)c5)cn34)n2)cn1

>  <classAssignment>
low

$$$$
>  <molecule>
O=C(c1ccc(Nc2ncc(F)c(-c3cnc4ccc(-c5ccccc5)cn34)n2)cn1)N1CCCCC1

>  <classAssignment>
high

$$$$
>  <molecule>
COc1cc(F)cc(-c2ccc3ncc(-c4ccnc(Nc5ccc(N6CCN(C)CC6)nc5)n4)n3c2)c1

>  <classAssignment>
low

$$$$
>  <molecule>
CN(C)c1ccc(Nc2nccc(-c3cnc4ccc(Br)cn34)n2)cn1

>  <classAssignment>
medium

$$$$
>  <molecule>
Cc1cnc(Nc2ccc(N3CCN(C)CC3)nc2)nc1-c1cnc2ccc(-c3ccccc3)cn12

>  <classAssignment>
low

$$$$
>  <molecule>
COc1ccc(-c2ccc3ncc(-c4ccnc(Nc5ccc(N6CCN(C(C)=O)CC6)nc5)n4)n3c2)cn1

>  <classAssignment>
medium

$$$$
>  <molecule>
CN1CCN(c2ccc(Nc3nccc(-c4cnc5ccc(-c6cccnc6)cn45)n3)nc2)CC1 [Comparator compound C, reference compound]

>  <classAssignment>
medium

$$$$
>  <molecule>
COC(=O)c1ccc(Nc2nccc(-c3cnc4ccc(Br)cn34)n2)cn1

>  <classAssignment>
high

$$$$
